Protocol details: qHTS Assay for Inhibitors of the HIV-1 protein Vpr; note: nearly all actives have a fitted effect of over 50% in size
Protocol conditions: S. pombe RE007 Vpr strain, BacTiter-Glo ATP luminescence, 24 h; series mostly up to 92.2 µM
Out of some 360,000 compounds screened, about 750 (0.21%) were called active. Inconclusive results (about 2%) are left out. Calls come from the whole dose curve; as a rule, active = well fitted falling curve with a large enough effect; inconclusive = small, poorly fitted or top-dose-only effect; inactive = no such curve, though single readings can be large or run the other way. The sample as a whole holds a higher share of actives than the screen did.
Valid outcomes are listed here; reply with one: active, inactive

For orientation, consider the following solved cases.
{"columns": ["Compound", "Class assignment"],
 "data": [
  ["CCOC(=O)N1CCN(S(=O)(=O)c2cc(Br)cc3c2N(C(=O)C2CC2)CC3)CC1", "inactive"],
  ["O=C(CN(CC1CCCO1)C(=O)CNS(=O)(=O)c1ccccc1)NCc1ccccc1 (stereo unspecified)", "inactive"],
  ["CC1(C(=O)NS(=O)(=O)c2ccc3ccccc3c2)CCN1C(=O)C1(c2ccc(Cl)cc2)CCC1 (stereo unspecified)", "inactive"]
]}

Could you please tell me the result logged for C=CCOc1ccc(/C=C/C(=O)OCC(=O)NC2CCCCCC2)cc1 in this assay?
inactive

Could you please tell me the result logged for O=C(COC(=O)CCCNC(=O)c1ccc(Cl)cc1)Nc1cc(Cl)ccc1Cl in this assay?
inactive

Could you please tell me the result logged for CCOC(=O)C1=C(c2ccc(OC)cc2)C(=O)c2ccccc2C1=O in this assay?
active

Could you please tell me the result logged for CCn1ncc(C2=NOC(C(=O)N3CCN(c4ccccc4)CC3)C2)c1C (stereo unspecified) in this assay?
inactive

Could you please tell me the result logged for CCOC(=O)C(Cc1ccc(N)cc1)N1C(=O)c2ccccc2C1=O (stereo unspecified) in this assay?
inactive

====

Protocol details: qHTS Assay for Inhibitors of the HIV-1 protein Vpr; note: nearly all actives have a fitted effect of over 50% in size
Protocol conditions: S. pombe RE007 Vpr strain, BacTiter-Glo ATP luminescence, 24 h; series mostly up to 92.2 µM
In all, about 360,000 compounds went through this assay and about 750 (0.21%) were called active. Inconclusive results (about 2%) are left out. Calls follow the shape of the dose curve; as a rule, active = well fitted falling curve with a large enough effect; inconclusive = small, poorly fitted or top-dose-only effect; inactive = no such curve, though single readings can be large or run the other way. The entries come from a sample that favours actives as a whole.
Valid outcomes are listed here; reply with one: Y for active, N for inactive

For orientation, consider the following solved cases.
{"columns": ["Molecule", "Class assignment"],
 "data": [
  ["CCOc1ccc(C(C(=O)NCCOC)N(CCOC)C(=O)CCC(=O)Nc2ccccn2)cc1 (configuration not stated)", "N"],
  ["CCOC(=O)c1ccc(N2C(=O)CC(N(C)Cc3ccccc3)C2=O)cc1 (configuration not stated)", "Y"]
]}

Could you please tell me the result logged for O=C(OCC(O)C(O)COC(=O)c1ccccc1)c1ccccc1 (configuration not stated) in this assay?
N

Could you please tell me the result logged for O=C(O)c1ccc(N=NN2CCOCC2)cc1 in this assay?
N

Could you please tell me the result logged for O=C(NCCc1ccccn1)c1cccnc1Oc1ccc(Cl)cc1 in this assay?
N

Could you please tell me the result logged for O=C(NC1CCCC1)C(c1c(F)cccc1Cl)N(C(=O)c1csnn1)C1CC1 (configuration not stated) in this assay?
N

Could you please tell me the result logged for COCCCNC(=O)C1CCN(c2ccc(N3CCOCC3)nn2)CC1 in this assay?
N

Could you please tell me the result logged for O=C1C(Cl)=C(Oc2ccccc2)C(=O)c2ccccc21 in this assay?
Y

Could you please tell me the result logged for O=C(Nc1cccc2ccccc12)c1onc2c1CCCC2 in this assay?
Y

Could you please tell me the result logged for O=C(CNCc1cccs1)Nc1cc(S(=O)(=O)N2CCCC2)ccc1Cl in this assay?
N

Could you please tell me the result logged for O=C(NC1=CC(=O)c2ccccc2C1=O)c1ccccc1 in this assay?
Y

Could you please tell me the result logged for CC1(C)CC[C@]2(C(=O)O)CC[C@]3(C)C(=CCC4[C@@]5(C)CC[C@H](O)C(C)(C)C5[C@H](O)C[C@]43C)[C@@H]2C1 (some centres not stated) in this assay?
N

Could you please tell me the result logged for COc1ccc(CCN2C(=O)CC(N3CCC(C(N)=O)CC3)C2=O)cc1OC (configuration not stated) in this assay?
N

Could you please tell me the result logged for O=C(Nc1cccc2ccccc12)NC1CC1 in this assay?
N

Could you please tell me the result logged for Cc1ccccc1OCC(=O)NCC(=O)OCC(=O)c1ccc2ccccc2c1 in this assay?
N

Could you please tell me the result logged for O=[N+]([O-])c1ccc(C=Nc2ccc(Cl)cc2Cl)s1 in this assay?
Y

Could you please tell me the result logged for Cc1cccc(C)c1NC(=O)Nc1ccccc1-n1ccnc1 in this assay?
N

Could you please tell me the result logged for CC1(C(=O)Nc2ccc3c(c2)OCCO3)CSCC(=O)N1CCOc1ccccc1 (configuration not stated) in this assay?
N

Could you please tell me the result logged for COC(=O)c1ccc(CNC(=O)c2ccc3oc(C(C)C)nc3c2)cc1 in this assay?
N

====

Protocol details: qHTS Assay for Inhibitors of the HIV-1 protein Vpr; note: nearly all actives have a fitted effect of over 50% in size
Protocol conditions: S. pombe RE007 Vpr strain, BacTiter-Glo ATP luminescence, 24 h; series mostly up to 92.2 µM
The campaign covered roughly 360,000 compounds. About 750 (0.21%) were called active. Not shown: some 2% with an inconclusive outcome. Calls come from the whole dose curve; as a rule, active = well fitted falling curve with a large enough effect; inconclusive = small, poorly fitted or top-dose-only effect; inactive = no such curve, though single readings can be large or run the other way. The sample as a whole holds a higher share of actives than the screen did.
Valid outcomes are listed here; reply with one: active, inactive

{"columns": ["Compound", "Class assignment"],
 "data": [
  ["COc1ccc(C(=O)CN2C(=O)NC3(CCc4ccccc43)C2=O)c(OC)c1 (stereo not drawn)", "inactive"],
  ["Cc1cccc(C(=O)N2CCCC(Nc3ccc(C(C)C)cc3)C2)n1 (stereo not drawn)", "inactive"],
  ["Clc1ccc(-c2nc3ccccn3c2CN2CCSCC2)cc1", "inactive"],
  ["Cc1nnsc1C(=O)Nc1cccc(Cl)c1C", "inactive"],
  ["CC(=O)c1cccc(-n2nnnc2SCC(=O)NNC(=O)C2CCCCC2)c1", "inactive"]
]}

Could you please tell me the result logged for CC(C)OC(=O)c1ccc(NCc2cc(O)ccc2O)cc1Cl in this assay?
active

Could you please tell me the result logged for CN(C)CC1Oc2ccccc2OC1(O)c1ccccc1 (stereo not drawn) in this assay?
active

Could you please tell me the result logged for O=C(Nc1ccc(F)cc1)Nc1nnc([C@H]2C[C@H](O)[C@@H](CO)O2)s1 in this assay?
inactive

Could you please tell me the result logged for Cc1cc(NC(=O)Cn2nc(C(F)(F)F)c3c2CCCC3)no1 in this assay?
inactive

Could you please tell me the result logged for CCc1noc(C)c1C(=O)OCC(=O)c1ccc(NC(=O)CC(C)C)cc1 in this assay?
inactive

Could you please tell me the result logged for COc1ccccc1C(=O)NCc1nnc(SC(C)C(=O)Nc2nccs2)n1C (stereo not drawn) in this assay?
inactive

Could you please tell me the result logged for C=CS(=O)c1sc(Cl)c(N2CCOCC2)c1[N+](=O)[O-] (stereo not drawn) in this assay?
active

Could you please tell me the result logged for O=C(CCN1CCc2ccccc2C(O)(c2ccccc2)C1)c1ccc2c(c1)OCCO2 (stereo not drawn) in this assay?
active

Could you please tell me the result logged for COc1ccc(C(=O)C(OP(=O)(OC)OC)c2ccccc2OC)cc1 (stereo not drawn) in this assay?
inactive

Could you please tell me the result logged for O=S(=O)(c1ccc2c(c1)OCCO2)N1CCc2ccccc21 in this assay?
inactive

Could you please tell me the result logged for CC1=C(C(=O)Nc2ccccc2)S(=O)(=O)CCO1 in this assay?
inactive

Could you please tell me the result logged for CCCn1cc(SCC(N)=O)c2ccccc21 in this assay?
inactive

Could you please tell me the result logged for COc1ccc(C(CNC(=O)c2cc(S(=O)(=O)Nc3cccc(C)c3)ccc2C)N2CCCC2)cc1 (stereo not drawn) in this assay?
inactive

Could you please tell me the result logged for COc1ccc(NC(=O)c2cccc(Cl)c2)c[n+]1[O-] in this assay?
inactive

Could you please tell me the result logged for O=C(Cn1nnc2ccccc2c1=O)Nc1cc(C(F)(F)F)ccc1N1CCOCC1 in this assay?
inactive

Could you please tell me the result logged for O=C(O)c1cscn1 in this assay?
inactive

Could you please tell me the result logged for O=C(CN1CCc2cc3c(cc2C1)OCCCO3)Nc1ccccc1 in this assay?
inactive

Could you please tell me the result logged for COc1ccc(-c2ccc3c(c2)[C@@H]2C[C@H](N(C)S(=O)(=O)c4ccccc4)[C@H]([C@H](C)O)C(=O)N2CC3)cc1 in this assay?
inactive

====

Protocol details: qHTS Assay for Inhibitors of the HIV-1 protein Vpr; note: nearly all actives have a fitted effect of over 50% in size
Protocol conditions: S. pombe RE007 Vpr strain, BacTiter-Glo ATP luminescence, 24 h; series mostly up to 92.2 µM
About 750 (0.21%) of roughly 360,000 compounds were called active. Not shown: some 2% with an inconclusive outcome. Calls follow the shape of the dose curve; as a rule, active = well fitted falling curve with a large enough effect; inconclusive = small, poorly fitted or top-dose-only effect; inactive = no such curve, though single readings can be large or run the other way. Shown is part of a subset that was picked to be rich in actives.
Valid outcomes are listed here; reply with one: active, inactive

For orientation, consider the following solved cases.
{"columns": ["Molecule", "Class assignment"],
 "data": [
  ["CCN(C(=O)COC(=O)/C=C/c1nc2ccccc2s1)C1CCS(=O)(=O)C1 (stereo not given)", "inactive"],
  ["CCSc1ccccc1C(=O)Nc1ccc2c(c1)OCO2", "active"],
  ["CC(=O)Nc1ccc(/C=N/Nc2ccc(C(=O)c3c(C)cc4ccccn34)cc2[N+](=O)[O-])cc1", "inactive"],
  ["COc1cc(/C=N/O)cc(Br)c1OCc1cccc(Cl)c1", "active"],
  ["O=C(NCc1nnnn1-c1ccc(Cl)cc1)c1ccc([N+](=O)[O-])o1", "inactive"],
  ["CC(C)NC(=O)CSc1ccccc1C(=O)NCc1ccc2c(c1)OCO2", "inactive"],
  ["O=C(CCn1nnnc1CN1CCOCC1)N1CCC(c2ccccc2Cl)C1 (stereo not given)", "inactive"],
  ["CCOC(=O)c1ccc(-n2c(C)nc3c(cnn3-c3ccccc3C)c2=O)cc1", "inactive"]
]}

Could you please tell me the result logged for CN(C)S(=O)(=O)c1ccc2oc(SCC(=O)Nc3ccccc3F)nc2c1 in this assay?
inactive

Could you please tell me the result logged for CCC(c1nnc(SCC(=O)NNC(=O)c2ccccc2)n1Cc1ccccc1)N(C)C (stereo not given) in this assay?
inactive
